Molecular target: human DPP-IV (Homo sapiens)
Sequence (P27487 31-766): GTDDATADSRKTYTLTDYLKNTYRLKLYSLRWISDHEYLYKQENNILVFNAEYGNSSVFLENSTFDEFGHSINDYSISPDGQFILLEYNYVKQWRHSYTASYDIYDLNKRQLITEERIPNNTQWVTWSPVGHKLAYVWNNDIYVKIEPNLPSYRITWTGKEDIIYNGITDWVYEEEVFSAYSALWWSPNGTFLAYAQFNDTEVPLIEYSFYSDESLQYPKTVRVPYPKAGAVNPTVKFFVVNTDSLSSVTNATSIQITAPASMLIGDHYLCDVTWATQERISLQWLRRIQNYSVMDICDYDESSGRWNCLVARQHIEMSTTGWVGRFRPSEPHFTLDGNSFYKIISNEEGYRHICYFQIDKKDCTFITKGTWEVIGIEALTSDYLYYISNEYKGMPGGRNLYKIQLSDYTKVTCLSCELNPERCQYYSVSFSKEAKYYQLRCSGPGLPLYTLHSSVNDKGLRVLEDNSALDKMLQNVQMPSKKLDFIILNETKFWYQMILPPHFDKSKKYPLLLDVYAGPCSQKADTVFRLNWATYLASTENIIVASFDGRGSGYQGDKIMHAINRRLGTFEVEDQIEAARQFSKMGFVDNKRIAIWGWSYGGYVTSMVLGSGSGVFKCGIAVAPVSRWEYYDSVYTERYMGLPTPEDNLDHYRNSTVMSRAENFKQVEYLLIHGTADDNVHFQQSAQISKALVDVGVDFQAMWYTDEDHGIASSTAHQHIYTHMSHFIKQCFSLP
Experiment: DPP-IV activity assay (colorimetric / fluorometric)
Details: natural human DPP-IV from human plasma pool or recombinant human DPP-IV; 37° C., pH 7.8
Attribute measured: pKi
One number for each entry, as −log10 of the molar value.

Endpoint output: pKi of CC(C)(CCn1cnc(-c2cccnc2)c1)NCC(=O)N1CCC[C@H]1C#N [fumarate] . Value?
7.64
